Target: mTR-GCCG (Mus musculus, UniProt Q9JLT4)
Conditions: full-length enzyme without Sec (Cys2 mutant), 4 nM enzyme, 3 mM DTNB, pH 7.4

{"columns": ["molecule", "IC50 / nM"],
 "data": [
  ["OC[C@H]1O[C@H]([S-])[C@H](O)[C@@H](O)[C@@H]1O.[Au+]", 142]
]}

====

Target: mTRΔ8 (Mus musculus, UniProt Q9JLT4)
Experiment: Inhibition of TR by gold compounds
Settings: truncated enzyme missing C-terminal tail, 2 nM enzyme, 3 mM DTNB, pH 7.4
pIC50: −log10 of the molar value.
pIC50 values for the molecules below.

{"columns": ["molecule", "pIC50"],
 "data": [
  ["OC[C@H]1O[C@H]([S-])[C@H](O)[C@@H](O)[C@@H]1O.[Au+] [aurothioglucose]", 7.60],
  ["CC(=O)OC[C@H]1O[C@@H]([S-])[C@H](OC(C)=O)[C@@H](OC(C)=O)[C@@H]1OC(C)=O.CCP(CC)CC.[Au+] [auranofin]", 6.07]
]}
